The values you see were collected from patent US20090280138A1.

Biological target: T1, MHC class I molecule A*0201 (biotin (bound to streptavidin-coated plate))
T1 construct: also called A2; HLA-A2
Experiment: iTopia iScore
Protocol: The 9 mers were tested for Peptide Binding, Off Rate and Affinity using iTopia Epitope Discovery System in accordance with the manufacturer's instructions. Briefly, 96 well microtitre plates coated with MHC molecules representing different MHC alleles are used to identify candidate peptides. […] Determinations are performed in duplicate using an ELISA plate reader and included allele specific positive controls. […]
# iScore values compiled below

| Binder | iScore |
| --- | --- |
| SNASVSAPS [5T4 9-mer peptide 83 SNASVSAPS] | 0.154 |
| PDQCPALCE [5T4 9-mer peptide 30 PDQCPALCE] | 0 |
| NHIVPPEDE [5T4 9-mer peptide 91 NHIVPPEDE] | 0 |
| SSAPFLASA [5T4 9-mer peptide 22 SSAPFLASA] | 0.389 |
| SLRQLDLSH [5T4 9-mer peptide 72 SLRQLDLSH] | 0 |
| VRAGAFEHL [5T4 9-mer peptide 67 VRAGAFEHL] | 0 |
| PALCECSEA [5T4 9-mer peptide 32 PALCECSEA] | 0.082 |
| VLPAGAFAR [5T4 9-mer peptide 53 VLPAGAFAR] | 0.081 |
